Measurement description: NCI Yeast Anticancer Drug Screen. Data for the mec2-1 strain (AID 157)
Applied conditions: S. cerevisiae mec2-1 strain, at 5.0 µM (retest, dose inferred, filed as 0.5)
Compounds without any hit were thinned out: in the full panel of roughly 79,000, 15% have a hit. The source made the active and inactive calls. Rule as the data show it: active = growth inhibition above about 70%; inactive = the rest.
Mark one answer only. Choices: yes (active), no (inactive)

-- ask Fill in: this test's call for O=S(=O)(O)/C(=C\c1ccccc1)c1ccccc1 (tested in a mixture with another compound) is ___
-- reply no

-- ask Fill in: this test's call for O=C(c1ccc(Br)cc1)C1C(c2ccccc2)N1C1CCCCC1 (configuration not stated) is ___
-- reply no

-- ask Fill in: this test's call for COC1C(O)C(C)OC(OC2C(Oc3cccc4c(O)c5c(=O)oc6ccc(C)c7c(=O)oc(c34)c5c67)OC(C)C(O)C2O)C1O (configuration not stated) is ___
-- reply no

-- ask Fill in: this test's call for O=[N+]([O-])C(Br)CO (configuration not stated) is ___
-- reply no

-- ask Fill in: this test's call for CC1C2C=CC1C(c1c3ccc(=O)c(O)c-3oc3c(O)c(O)ccc13)C2C(=O)O (configuration not stated) is ___
-- reply no

-- ask Fill in: this test's call for O=C1C(F)=C(N2CC2)C(=O)C(F)=C1N1CC1 is ___
-- reply yes

Continuing:
-- ask Fill in: this test's call for S=P(Nc1ccccc1)(Oc1ccccc1)c1ccccc1 (configuration not stated) is ___
-- reply no

-- ask Fill in: this test's call for CCC[CH2][Sn]([F])([CH2]CCC)[O][Sn]([F])([CH2]CCC)[CH2]CCC is ___
-- reply no

-- ask Fill in: this test's call for ClC1=NSSC1(Cl)Cl is ___
-- reply no

-- ask Fill in: this test's call for CCOP(=O)(OCC)/C(C#N)=C/c1ccccc1Cl is ___
-- reply no

-- ask Fill in: this test's call for CC(=O)OC1C2(CC3N4C(=O)C5(CO)SSC4(CC31O)C(=O)N5C)OC(C)C(C)(C)C2=O (configuration not stated) is ___
-- reply yes

-- ask Fill in: this test's call for C=C1C(C)C2C(Cc3ccccc3)NC(=O)C23C(OC(C)=O)C=CC(C)(O)C(=O)C(C)C/C=C/C3C1O (configuration not stated) is ___
-- reply no

-- ask Fill in: this test's call for O=C1C(=O)c2ccccc2-c2ccccc21.O=C1C(=O)c2ccccc2-c2ccccc21.[Hg] is ___
-- reply yes

---

Measurement description: NCI Yeast Anticancer Drug Screen. Data for the rad14 strain (AID 159);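 also: 0% = growth of vehicle-treated control cultures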
Applied conditions: S. cerevisiae rad14 strain growth inhibition; at 3.7 µM; active compounds read high
The panel holds about 79,000 compounds, 15% with a hit somewhere; the sample as a whole holds those more often.
Exercise: for every item that follows, state its recorded growth inhibition.
One number for each entry, in %.

# annotated cases, reported growth inhibition shown
growth inhibition recorded for this molecule, CC1=C(O)C(=O)C=C2C1=CC=C1[C@@]2(C)CCC2(C)[C@@H]3C[C@@H](C)C(=O)C[C@]3(C)CC[C@]12C (stereo partly drawn) , is -13

growth inhibition recorded for this molecule, CCOC(=O)C1=C(C(=O)OCC)C2(c3ccccc3)N(O1)c1ccccc1C2(C)C (stereo not drawn) , is -4

# evaluate next
growth inhibition recorded for this molecule, Cc1c(N)nc([C@H](CC(N)=O)NC[C@H](N)C(N)=O)nc1C(=O)N[C@H](C(=O)N[C@H](C)[C@@H](O)[C@H](C)C(=O)N[C@H](C(=O)NCCc1nc(-c2nc(C(=O)NCCC[S+](C)C)cs2)cs1)[C@@H](C)O)C(OC1OC(CO)C(O)C(O)C1OC1OC(CO)C(O)C(OC(N)=O)C1O)c1cnc[nH]1 (stereo partly drawn) , is 11

---

Measurement description: NCI Yeast Anticancer Drug Screen. Data for the mec2-1 strain (AID 157)
Applied conditions: S. cerevisiae mec2-1 strain, at 1.2 µM, active compounds read high
Procedure: Growth inhibition of yeast strains with defined genetic alterations is measured as a screen for potential anti-cancer activity. Selected strains with alterations in DNA damage repair or cell cycle control were exposed to compounds and growth inhibition was measured relative to vehicle treated controls. The strain used in this assay is mec2-1
The panel holds about 79,000 compounds, 15% with a hit somewhere; the sample as a whole holds those more often.
Experimental endpoint: growth inhibition (%)
Give bare numbers, in %.

# annotated cases, reported growth inhibition shown
growth inhibition recorded for this compound, c1c(N2CCOCC2)ssc1=[N+]1CCOCC1 , is 0

growth inhibition recorded for this compound, CCCCCCCCCCCCCCCCP(=O)(O)OCC(N)C(=O)O (stereo not drawn) , is -22

growth inhibition recorded for this compound, CCNC(=O)OCC1C2=C(C(=O)C(C)=C(N)C2=O)N2CC3C(N3C)C12OC (stereo not drawn) , is 9

growth inhibition recorded for this compound, CCOC(=O)C1=C(C(=O)OCC)C2(c3ccccc3)N(O1)c1ccccc1C2(C)C (stereo not drawn) , is -3

growth inhibition recorded for this compound, OC1(c2ccccc2)CC2CCC(C1)N2CCCC(O)(c1ccccc1)c1ccccc1 (stereo not drawn) , is 0

Quick one: give me growth inhibition for each item below, same order please.
1. CCN(CC)CCBr
2. C/C(=N\O)c1ccc2ccc3ccccc3c2c1
3. CC1CCC2(NC1)OC1CC3C4CCC5CC(OC6OC(CO)C(OC7OC(CO)C(O)C(OC8OCC(O)C(O)C8O)C7OC7OC(CO)C(O)C(O)C7O)C(O)C6O)CCC5(C)C4CCC3(C)C1C2C (stereo not drawn)
4. CCOC(=O)C1C2c3ccccc3C(c3ccccc32)C1C(=O)OCC (stereo not drawn)
5. O=P(CCCCP(=O)(c1ccccc1)c1ccccc1)(c1ccccc1)c1ccccc1.[Cl][Sn]([Cl])([c]1ccccc1)[c]1ccccc1
6. CC(C)(C)c1cc([N+](=O)[O-])cc([N+](=O)[O-])c1O

-- reply
1. -1
2. 0
3. 13
4. -1
5. 11
6. -61

Quick one: give me growth inhibition for each item below, same order please.
1. c1cc2c(cc1C1OC[C@H]3[C@@H](c4ccc5c(c4)OCO5)OC[C@@H]13)OCO2 (stereo partly drawn)
2. C[N+]1(CCCl)CC[N+](C)(CCCl)CC1 (stereo not drawn)
3. CC[C@@]1(O)C[C@H](OC2CC(N(C)C)C(O)C(C)O2)c2c(O)c3c(c(O)c2[C@H]1OC1CC(N(C)C)C(O)C(C)O1)C(=O)c1cccc(O)c1C3=O (stereo partly drawn)
4. C[C@@]12CCC(=O)C=C1CC[C@H]1C2=CC[C@]2(C)C1CC[C@@]2(C)O (stereo partly drawn)
5. CCC(=O)OC1CCn2c1nc1c2C(=O)C(C)=C(N2CC2)C1=O (stereo not drawn)
6. Cc1c(N)nc([C@H](CC(N)=O)NC[C@H](N)C(N)=O)nc1C(=O)N[C@H](C(=O)N[C@H](C)[C@@H](O)[C@H](C)C(=O)N[C@H](C(=O)NCCc1nc(-c2nc(C(=O)NCCC[S+](C)C)cs2)cs1)[C@@H](C)O)C(OC1OC(CO)C(O)C(O)C1OC1OC(CO)C(O)C(OC(N)=O)C1O)c1cnc[nH]1 (stereo partly drawn)
7. COc1ccc(OC)c(/C=C/[N+](=O)[O-])c1

-- reply
1: -2; 2: -3; 3: 10; 4: 8; 5: -7; 6: 1; 7: 1

---

Measurement description: NCI Yeast Anticancer Drug Screen. Data for the cln2 rad14 strain (AID 165);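 also: 0% = growth equal to vehicle treated cultures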
Applied conditions: S. cerevisiae cln2 rad14 strain, at 50.0 µM, active compounds read high
About 79,000 compounds went through this panel and 15% of them were active in at least one assay; those are over-represented in the sample as a whole.
Parameter threshold = 40%. Response is Yes when growth inhibition meets or exceeds it, else No.

-- ask # bool: growth inhibition of CCCCN(CC)CC(C(C)=O)c1c(O)c2ccccc2oc1=O (configuration not stated) >= 40%
-- reply Yes

-- ask # bool: growth inhibition of Nc1nc(N)c(-c2ccc(Cl)c(Cl)c2)c(CCc2ccc(CNC(=O)c3cc(S(=O)(=O)F)ccc3Cl)cc2)n1 >= 40%
-- reply No

-- ask # bool: growth inhibition of Cc1c([N+](=O)[O-])oc2ccc3ccccc3c12 >= 40%
-- reply Yes

-- ask # bool: growth inhibition of CC(=O)OC1C(O)C(C)OC(OC2C(OC(=O)C3CCC4C(C3)OC3(CC(OC(=O)/C=C/c5ccccc5)C(C)CO3)C43CO3)OC(C)C(O)C2OC(C)=O)C1O (configuration not stated) >= 40%
-- reply Yes

Continuing:
-- ask # bool: growth inhibition of CCOP(=O)(OCC)Oc1cc(C)c(SC#N)c(C)c1 >= 40%
-- reply Yes

-- ask # bool: growth inhibition of ClCCN(CCCl)c1ccc(CN2CCCN(Cc3ccc(N(CCCl)CCCl)cc3Cl)C2c2ccncc2)c(Cl)c1 >= 40%
-- reply Yes

-- ask # bool: growth inhibition of O=C(O)/C=C\c1c[nH]c2ccccc12 >= 40%
-- reply No
